Tested on: A498 renal
Assay: NCI-60 one-dose screen, 48 h (100 = growth as untreated, 0 = no growth, -100 = all killed)
Conditions: 10 µM
This is part of a sample that, as a whole, favours compounds with a hit. Of some 83,000 tested, about 20% had one in any assay.
Rule: growth of 90% or more gives YES; anything lower gives NO.

[ask] Reported growth at or above 90%? COC(=O)[C@@H](C)C[C@H](Cc1ccc2ccccc2c1)NC(=O)c1csc([C@@H](C[C@H](C(C)C)N(C)C(=O)[C@@H](NC(=O)[C@H]2CCCCN2C)C(C)C)OC(C)=O)n1
[reply] NO

[ask] Consider next the molecule COc1ccc(S(=O)(=O)N(Cc2ccc3c(c2)C=CC(C)(C)O3)c2ccccc2)cc1OC in the same way.
[reply] NO

[ask] And what about the molecule OCCNC(Cc1ccccc1)c1ccc2c(c1)OCO2 (stereo not given) ?
[reply] NO

[ask] And then CN(C)C(=O)Oc1ccc(Br)cc1 , what is it?
[reply] YES

[ask] Try this molecule too: O=C1C=C2C(=CCOC2O)O1 (stereo not given)
[reply] YES
